Test system: constant white light-induced retinal damage
Assay: Experiment 1: protective effect against constant white light-induced retinal damage (ERG a-wave), intraperitoneal administration
Type: in vivo, Male Wistar rats
Details: rats, 50 mg/kg intraperitoneally twice, in 0.5% methylcellulose; ERG a-wave amplitude after two days constant light
Decision: % recovery (Mean ± S.E.M.) >= 80% yields MET, all other cases yield NOT MET.

Some entries whose results are on file:
* CC(C)(CO)NC(=O)c1ccc(Cl)cn1 | NOT MET
* CC(C)(CO)NC(=O)c1ccc(F)cc1F | NOT MET

Kindly consider the entry below.
Is % recovery (Mean ± S.E.M.) at least 80%? Consider CC(C)(C)NC(=O)c1ccc(F)cc1F [Example 1, N-t-Butyl-2,4-difluorobenzamide]
MET
